# System: Vero
# TEST_PROTOCOL: In vitro minimum inhibitory concentration for antiviral activity was tested against Herpes simplex virus type 1(HSV-1)
# Format: functional
# CONDITION_INFO: Chlorocebus sabaeus
PARAMETER: MIC

Consider the worked cases shown below.
| COMPOUND | MIC |
| --- | --- |
| C=C1C[C@](OC)([C@H](O)C(=O)N[C@H]2OCO[C@@H]3[C@@H](OC)[C@H](O)[C@@H](CO)O[C@@H]32)O[C@H](C)[C@@H]1C | 25 µg/mL |
| C=C1C[C@](OC)([C@H](O)C(=O)N[C@H]2OCO[C@H]3[C@@H]2O[C@H](C[C@H](O)CO)C(C)(C)[C@@H]3OC)O[C@H](C)[C@@H]1C [MYCALAMIDE A] | < 0.391 µg/mL |
| C=C1C[C@](OC)([C@@H](O)C(=O)N[C@H]2OCO[C@H]3[C@@H]2O[C@H](C[C@H](O)CO)C(C)(C)[C@@H]3OC)O[C@H](C)[C@@H]1C | 50 µg/mL |

// query Please look at C=C1C[C@](OC)([C@@H](O)C(=O)N[C@@H]2OCO[C@H]3[C@@H]2O[C@H](C[C@H](O)CO)C(C)(C)[C@@H]3OC)O[C@H](C)[C@@H]1C and tell me its recorded MIC on Vero.
// result 50 µg/mL

// query Please look at CO[C@@H]1[C@H]2OCO[C@H](NC(=O)[C@@H](O)[C@@]3(OC)CCC[C@@H](C)O3)[C@H]2O[C@H](C[C@H](O)CO)C1(C)C and tell me its recorded MIC on Vero.
// result 3.12 µg/mL

// query Please look at C=C1C[C@](OC)([C@H](O)C(=O)N[C@@H]2OCO[C@@H]3[C@@H](OC)[C@H](O)[C@@H](CO)O[C@@H]32)O[C@H](C)[C@@H]1C and tell me its recorded MIC on Vero.
// result > 50 µg/mL

// query Please look at CO[C@@H]1[C@H]2OCO[C@@H](NC(=O)[C@@H](O)[C@@]3(OC)CCC[C@@H](C)O3)[C@H]2O[C@H](C[C@H](O)CO)C1(C)C and tell me its recorded MIC on Vero.
// result 50 µg/mL

// query Please look at C=C1C[C@](OC)([C@H](O)C(=O)N[C@@H]2OCO[C@H]3[C@@H]2O[C@H](C[C@H](O)CO)C(C)(C)[C@@H]3OC)O[C@H](C)[C@@H]1C and tell me its recorded MIC on Vero.
// result 12.5 µg/mL

// query Please look at C=C1C[C@@H](C)O[C@@](OC)([C@H](O)C(=O)N[C@@H]2OCO[C@H]3[C@@H]2O[C@H](C[C@H](O)CO)C(C)(C)[C@@H]3OC)C1 and tell me its recorded MIC on Vero.
// result 50 µg/mL

// query Please look at C=C1C[C@@H](C)O[C@@](OC)([C@H](O)C(=O)N[C@H]2OCO[C@H]3[C@@H]2O[C@H](C[C@H](O)CO)C(C)(C)[C@@H]3OC)C1 and tell me its recorded MIC on Vero.
// result < 0.391 µg/mL
